Data provenance is patent US20090018111A1.

Each entry below carries its recorded MIC.
- System: S. marcescens GN6473
- PROTOCOL_SUMMARY: Sensitivity test (agar dilution)
- Type: cell-based, Serratia marcescens
- RECORDED_CONDITIONS: Serratia marcescens, GN6473, drug alone; S. marcescens GN6473; read-out: MIC alone
- Description: […] FIC index based on MIC value was calculated. […] Namely, when FIC index calculated by the following formula is equal or less than 1, the enhanced effect of the combination drug in said ratio is considered as positive. […] Formula of FIC index: FIC index=(MIC of Drug A in combination/MIC of Drug A alone)+(MIC of Drug B in combination/MIC of Drug B alone) N.C. in tables means being not calculated.
Reply numerically in µg/mL, unit not repeated.

See these solved cases before continuing.
CC(=N)N1CC[C@H](SC2=C(C(=O)O)N3C(=O)[C@H]([C@@H](C)O)[C@H]3C2)C1 [PAPM, panipenem]; 0.5
C[C@H]1C=C(c2csc(SC3=C(C(=O)O)N4C(=O)[C@H]([C@@H](C)O)[C@H]4[C@H]3C)n2)CN1 [SM]; 4
CC(C)(O/N=C(\C(=O)N[C@@H]1C(=O)N2C(C(=O)[O-])=C(C[n+]3ccccc3)CS[C@H]12)c1csc(N)n1)C(=O)O [CAZ, ceftazidime]; 0.5
C[C@@H](O)[C@H]1C(=O)N2C(C(=O)[O-])=C(SC3Cn4cnc[n+]4C3)[C@H](C)[C@H]12 (stereo partly shown) [BIPM, biapenem]; 0.125
C[C@@H](O)[C@H]1C(=O)N2C(C(=O)O)=C(S[C@@H]3CN[C@H](CNS(N)(=O)=O)C3)[C@H](C)[C@H]12 [DRPM, doripenem]; 0.063

Next item in the queue.
Recall the recorded MIC for C[C@H]1[C@H](NC(=O)/C(=N\OC(C)(C)C(=O)O)c2csc(N)n2)C(=O)N1S(=O)(=O)O [AZT, aztreonam] with S. marcescens GN6473 and state it.
0.125

###

- System: P. vurgalis OX-19
- PROTOCOL_SUMMARY: Sensitivity test (agar dilution)
- Format: cell-based, Proteus vulgaris
- RECORDED_CONDITIONS: Proteus vulgaris, OX19, drug alone; P. vurgalis OX-19; read-out: MIC alone
- Procedure: […] FIC index based on MIC value was calculated. […] Namely, when FIC index calculated by the following formula is equal or less than 1, the enhanced effect of the combination drug in said ratio is considered as positive. […] Formula of FIC index: FIC index=(MIC of Drug A in combination/MIC of Drug A alone)+(MIC of Drug B in combination/MIC of Drug B alone) N.C. in tables means being not calculated.
MEASUREMENT_TYPE: MIC (µg/mL)
Answer format: numeric, µg/mL implied, no suffix.

CC(=N)N1CC[C@H](SC2=C(C(=O)O)N3C(=O)[C@H]([C@@H](C)O)[C@H]3C2)C1; 1
CC(C)(O/N=C(\C(=O)N[C@@H]1C(=O)N2C(C(=O)[O-])=C(C[n+]3ccccc3)CS[C@H]12)c1csc(N)n1)C(=O)O; 0.031
C[C@@H](O)[C@H]1C(=O)N2C(C(=O)O)=C(S[C@@H]3CN[C@H](CNS(N)(=O)=O)C3)[C@H](C)[C@H]12; 0.031

Please look up its MIC: C[C@H]1[C@H](NC(=O)/C(=N\OC(C)(C)C(=O)O)c2csc(N)n2)C(=O)N1S(=O)(=O)O
0.004

Look at this molecule and give its reported MIC. C[C@@H](O)[C@H]1C(=O)N2C(C(=O)[O-])=C(SC3Cn4cnc[n+]4C3)[C@H](C)[C@H]12 (some centres unmarked)
0.25
